Target or test system: recombinant full-length human GSK3β (Homo sapiens, UniProt P49841)
Construct: recombinant full-length human GSK3β (Upstate); purchased Upstate
Sequence (P49841 whole entry): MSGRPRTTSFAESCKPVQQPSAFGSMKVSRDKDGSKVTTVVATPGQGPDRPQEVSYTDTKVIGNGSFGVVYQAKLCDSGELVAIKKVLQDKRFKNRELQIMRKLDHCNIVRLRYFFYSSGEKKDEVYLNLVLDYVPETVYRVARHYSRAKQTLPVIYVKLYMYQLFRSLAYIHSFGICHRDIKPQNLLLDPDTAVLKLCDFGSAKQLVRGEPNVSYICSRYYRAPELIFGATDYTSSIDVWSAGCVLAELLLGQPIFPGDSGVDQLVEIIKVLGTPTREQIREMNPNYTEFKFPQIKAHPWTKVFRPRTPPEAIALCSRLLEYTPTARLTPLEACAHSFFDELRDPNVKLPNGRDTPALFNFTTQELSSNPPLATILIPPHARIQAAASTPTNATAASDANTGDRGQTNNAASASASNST
Assay name: cell-free GSK3 kinase assay (KinaseGlo luciferase)
Format: biochemical
Particulars: Table 1; 5 μM ATP, 1 hour at 30 degrees Celsius
Protocol: Proceed to KinaseGlo luciferase reaction. Following the completion of the kinase reaction an equal volume of KinaseGlo luciferase reagent (Promega) is added and the luminescence read using a luminescence plate reader within 5-10 minutes.
Quantity: IC50

| Compound | Target or test system | IC50 |
| --- | --- | --- |
| Nc1c(F)c(NCCSc2nc3ccccc3[nH]2)c2c3c1c(=O)c(C(=O)O)cn3C1(CCCC1)CO2 | recombinant full-length human GSK3β (Homo sapiens, UniProt P49841) | > 150 nM |

--- query ---
Prompt: Item CC1COc2c(NCCNc3ccccn3)c(F)c(N)c3c(=O)c(C(=O)O)cn(c23)C12CCC2 (stereo not shown) has what recorded IC50?
Response: < 15 nM

---

Below is a list of entries, each paired with its recorded pIC50 value.
Target or test system: recombinant full-length human GSK3β (Homo sapiens, UniProt P49841)
Construct: recombinant full-length human GSK3β (Upstate); purchased Upstate
Assay name: cell-free GSK3 kinase assay (KinaseGlo luciferase)
Format: biochemical
Particulars: Table 1; 5 μM ATP, 1 hour at 30 degrees Celsius
pIC50: −log10 of the molar value.

The following molecules have reported results that may help.
| Molecule | Target or test system | pIC50 |
| --- | --- | --- |
| Nc1c(F)c(NCCOc2ccc(F)cc2)c2c3c1c(=O)c(C(=O)O)cn3C1(CCCC1)CO2 [Compound 9] | recombinant full-length human GSK3β (Homo sapiens, UniProt P49841) | 7.22 to 7.80 |
| Nc1c(F)c(NCCOc2ccc(Cl)cc2Cl)c2c3c1c(=O)c(C(=O)O)cn3C1(CCCC1)CO2 [Compound 13] | recombinant full-length human GSK3β (Homo sapiens, UniProt P49841) | 6.82 to 7.21 |

Prompt: Form field: pIC50 recorded for Nc1c(F)c(NCCNC(=O)c2ccccn2)c2c3c1c(=O)c(C(=O)O)cn3C1(CCCC1)CO2 [Compound 68] with recombinant full-length human GSK3β (Homo sapiens, UniProt P49841) (enter value)
Response: 7.22 to 7.80

Prompt: Form field: pIC50 recorded for Nc1c(F)c(NCCOc2ccccc2)c2c3c1c(=O)c(C(=O)O)cn3C1(CCCC1)CO2 [Compound 66] with recombinant full-length human GSK3β (Homo sapiens, UniProt P49841) (enter value)
Response: < 6.82

Prompt: Form field: pIC50 recorded for Nc1c(F)c(NCCCn2cncn2)c2c3c1c(=O)c(C(=O)O)cn3C1(CCCC1)CO2 [Compound 3] with recombinant full-length human GSK3β (Homo sapiens, UniProt P49841) (enter value)
Response: 6.82 to 7.21

Prompt: Form field: pIC50 recorded for COc1ccc(OCCNc2c(F)c(N)c3c(=O)c(C(=O)O)cn4c3c2OCC42CCCC2)cc1OC [Compound 14] with recombinant full-length human GSK3β (Homo sapiens, UniProt P49841) (enter value)
Response: > 7.82

Prompt: Form field: pIC50 recorded for Nc1c(F)c(NCCNc2ccccn2)c2c3c1c(=O)c(C(=O)O)cn3CC1(CCC1)O2 [Compound 45] with recombinant full-length human GSK3β (Homo sapiens, UniProt P49841) (enter value)
Response: 6.82 to 7.21

Prompt: Form field: pIC50 recorded for Nc1c(F)c(NCCSc2nnnn2-c2ccccc2)c2c3c1c(=O)c(C(=O)O)cn3C1(CCCC1)CO2 [Compound 21] with recombinant full-length human GSK3β (Homo sapiens, UniProt P49841) (enter value)
Response: > 7.82
